MEASURED TARGET: Schistosoma mansoni thioredoxin glutathione reductase (TGR) (UniProt Q962Y6)
PROCEDURE SUMMARY: qHTS Assay for the Inhibitors of Schistosoma Mansoni Peroxiredoxins; note: nearly all actives have a fitted effect of over 60% in size
RECORDED CONDITIONS: purified TGR, DTNB reduction, TNB absorbance 405 nm; series mostly up to 114 µM
About 11,000 (3.1%) of roughly 360,000 compounds were called active. Not shown: some 4% with an inconclusive outcome. Calls come from the whole dose curve; as a rule, active = well fitted inhibition curve with a large enough effect; inconclusive = small, poorly fitted or top-dose-only effect; inactive = no such curve, though single readings can be large or run the other way. The entries come from a sample that favours actives as a whole.
Response enum: active, inactive

Example results:
- MOLECULE: "CN1CCN(S(=O)(=O)c2ccc(N3CCN(c4ccccc4O)CC3)c([N+](=O)[O-])c2)CC1"
  MEASURED TARGET: "Schistosoma mansoni thioredoxin glutathione reductase (TGR) (UniProt Q962Y6)"
  LABEL VALUE: "inactive"
- MOLECULE: "CCCCn1c(N)c(N(CC)C(=O)/C=C/c2ccco2)c(=O)[nH]c1=O"
  MEASURED TARGET: "Schistosoma mansoni thioredoxin glutathione reductase (TGR) (UniProt Q962Y6)"
  LABEL VALUE: "active"
- MOLECULE: "Cc1nnc(NC(=O)c2ccc3nccnc3c2)s1"
  MEASURED TARGET: "Schistosoma mansoni thioredoxin glutathione reductase (TGR) (UniProt Q962Y6)"
  LABEL VALUE: "inactive"
- MOLECULE: "Cc1ccc(C(=O)N2c3ncnn3C3(CCCCC3)[C@@H]3CCCC[C@@H]32)cc1"
  MEASURED TARGET: "Schistosoma mansoni thioredoxin glutathione reductase (TGR) (UniProt Q962Y6)"
  LABEL VALUE: "inactive"

Query string: Kindly provide the recorded test outcome for the following molecule: Cc1ccc(C(=O)Cc2nnc(C)s2)cc1
Result string: active

====

MEASURED TARGET: Schistosoma mansoni thioredoxin glutathione reductase (TGR)
PROCEDURE SUMMARY: qHTS Assay for the Inhibitors of Schistosoma Mansoni Peroxiredoxins; note: nearly all actives have a fitted effect of over 60% in size
RECORDED CONDITIONS: purified TGR, DTNB reduction, TNB absorbance 405 nm; series mostly up to 114 µM
About 11,000 (3.1%) of roughly 360,000 compounds were called active. Inconclusive results (about 4%) are left out. Calls follow the shape of the dose curve; as a rule, active = well fitted inhibition curve with a large enough effect; inconclusive = small, poorly fitted or top-dose-only effect; inactive = no such curve, though single readings can be large or run the other way. Shown is part of a subset that was picked to be rich in actives.
Hi! Could you answer with just one of these? TRUE for active, FALSE for inactive

Take a look at these entries with their results.
- COMPOUND: "Cc1ccc(OCC(=O)Nc2ccccc2C(=O)NC2CC2)cc1C"
  LABEL VALUE: "TRUE"
- COMPOUND: "O=C(O)CCS(=O)(=O)c1ccc(-c2ccccc2)cc1"
  LABEL VALUE: "FALSE"
- COMPOUND: "CCOC(=O)c1c(C)oc2ccc(N(C(=O)c3ccncc3)S(=O)(=O)c3ccc(CC)cc3)cc12"
  LABEL VALUE: "FALSE"
- COMPOUND: "CCOc1ccc(C(C)=O)cc1COC(=O)CNC(=O)c1cccs1"
  LABEL VALUE: "TRUE"
- COMPOUND: "CC(=O)CCS(=O)(=O)c1ccc(C)c(C)c1"
  LABEL VALUE: "TRUE"
- COMPOUND: "CCn1c(NC(=O)c2ccccc2)c(-c2cccs2)c(=O)c2ccccc21"
  LABEL VALUE: "FALSE"
- COMPOUND: "CC(C)Cn1c(CCC(=O)O)ccc1-c1cccs1"
  LABEL VALUE: "TRUE"
- COMPOUND: "CCOc1ccc(C(C)NC(=O)CN2C(=O)NC3(CCCCC3)C2=O)cc1OCC (stereo unspecified)"
  LABEL VALUE: "FALSE"

Query string: Record request — test call for O=C(O)CCC(=O)N(Cc1cccs1)Cc1cccs1
Result string: FALSE

Query string: Param item: CCOc1ccc(C(C)=O)cc1COC(=O)c1cnc(Cl)c(Cl)c1
Result string: FALSE

Query string: And COc1ccc(C(=O)COC(=O)CNC(=O)c2cccs2)cc1Br ?
Result string: FALSE
